Reference for the values: patent US11105794B2

Tested on: A549 cells
Test: EGF assay, A549 cells transfected with oligonucleotide;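 also: values as percent of saline control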
Format: cell-based, human
Settings: A549, 48 hours after transfection, 10 ng oligonucleotide
l = locked nucleic acid (LNA); d = 2'-deoxy (DNA)
Could you mark each record 1.0 if its EGF falls strictly under 200 % saline, and 0.0 if it equals or exceeds it?

{"columns": ["Substance", "Target desc", "Label class"],
 "data": [
  ["CGTcagtatgcgAATc (CGTCAGTATGCGAATC; chemistry not given here) [Compound 1-1]", "A549 cells", 1.0],
  ["ACTgctttccactCTG (ACTGCTTTCCACTCTG; chemistry not given here) [Compound 8-1]", "A549 cells", 0.0],
  ["AATgctacaaaaCCCA (antisense AATGCTACAAAACCCA; sugars from the 5' end l3 d9 l4, backbone and methylation of C not given here) [Compound 2-1]", "A549 cells", 1.0],
  ["GCtgtgtgagcttGG (antisense GCTGTGTGAGCTTGG; sugars from the 5' end l2 d11 l2, backbone and methylation of C not given here) [Compound 4-1]", "A549 cells", 0.0]
]}

====

Test system: PTEC-TERT1 cells
Assay: EGF assay, supernatant of PTEC-TERT1 cells
Conditions: PTEC-TERT1, Day 6, 10 μM (Table 4)
Overview of recorded EGF for various substances

{"columns": ["Substance", "EGF, % saline"],
 "data": [
  ["CAAaggaaacacaCAT (CAAAGGAAACACACAT; chemistry not given here) [Compound 6-1]", 78],
  ["CAAatgctgaaacTAT (CAAATGCTGAAACTAT; chemistry not given here) [Compound 7-1]", 37],
  ["TTAcacttgacCCA (TTACACTTGACCCA; chemistry not given here) [Compound 12-1]", 19],
  ["CACattccttgctCTG (CACATTCCTTGCTCTG; chemistry not given here) [Compound 10-1]", 73]
]}

====

Tested on: PTEC-TERT1 cells
Test: EGF assay, supernatant of PTEC-TERT1 cells
Settings: PTEC-TERT1, 6 days, 30 μM; from EGF, assay window saline vs toxic reference compound 4-1
Could you mark each record Yes if its Toxicity grade falls strictly under 50, and No if it equals or exceeds it?

{"columns": ["Substance", "Label class"],
 "data": [
  ["CACattrcrcttrgrctCTG (antisense CACATTCCTTGCTCTG; LNA gapmer, stereodefined phosphorothioates, chemistry not fully specified) [Compound 10-5]", "Yes"],
  ["CACattscscttsgsctCTG (antisense CACATTCCTTGCTCTG; LNA gapmer, stereodefined phosphorothioates, chemistry not fully specified) [Compound 10-4]", "Yes"],
  ["ACTgcstttcscacstCTG (antisense ACTGCTTTCCACTCTG; LNA gapmer, stereodefined phosphorothioates, chemistry not fully specified) [Compound 8-2]", "No"],
  ["CACattccttgctCTG (CACATTCCTTGCTCTG; chemistry not given here) [Compound 10-1]", "Yes"],
  ["ACTgcrtttcrcacrtCTG (antisense ACTGCTTTCCACTCTG; LNA gapmer, stereodefined phosphorothioates, chemistry not fully specified) [Compound 8-3]", "Yes"]
]}

====

Tested on: PTEC-TERT1 cells
Assay: EGF assay, supernatant of PTEC-TERT1 cells
Settings: PTEC-TERT1, Day 6, 10 μM (Table 4)
Output condition met for EGF not less than 300 % saline; output condition not met otherwise.

{"columns": ["Substance", "Label class"],
 "data": [
  ["GCCtcccagttccTTT (GCCTCCCAGTTCCTTT; chemistry not given here) [Compound 9-1]", "condition not met"],
  ["TTTacacttgaCCC (TTTACACTTGACCC; chemistry not given here) [Compound 13-1]", "condition not met"],
  ["CATtgcattgtttCCG (CATTGCATTGTTTCCG; chemistry not given here) [Compound 19-1]", "condition met"],
  ["ACTgctttccactCTG (ACTGCTTTCCACTCTG; chemistry not given here) [Compound 8-1]", "condition met"],
  ["CGTttgtgctcgATA (CGTTTGTGCTCGATA; chemistry not given here) [Compound 17-1]", "condition met"],
  ["CGTttgtgctcgaTAA (CGTTTGTGCTCGATAA; chemistry not given here) [Compound 16-1]", "condition met"]
]}

====

Tested on: PTEC-TERT1 cells
Assay: EGF assay, supernatant of PTEC-TERT1 cells
Conditions: PTEC-TERT1, 6 days, 10 μM oligonucleotide (Table 7)
l = locked nucleic acid (LNA); d = 2'-deoxy (DNA)

{"columns": ["Substance", "EGF, % saline"],
 "data": [
  ["ACTgcrtttcrcacrtCTG (antisense ACTGCTTTCCACTCTG; LNA gapmer, stereodefined phosphorothioates, chemistry not fully specified) [Compound 8-3]", 869],
  ["CACattscscttsgsctCTG (antisense CACATTCCTTGCTCTG; LNA gapmer, stereodefined phosphorothioates, chemistry not fully specified) [Compound 10-4]", 60],
  ["ACTgcstttcscacstCTG (antisense ACTGCTTTCCACTCTG; LNA gapmer, stereodefined phosphorothioates, chemistry not fully specified) [Compound 8-2]", 5723],
  ["GCtgtgtgagcttGG (antisense GCTGTGTGAGCTTGG; sugars from the 5' end l2 d11 l2, backbone and methylation of C not given here) [Compound 4-1]", 2622],
  ["CACattrccttrgctrCTrG (antisense CACATTCCTTGCTCTG; LNA gapmer, stereodefined phosphorothioates, chemistry not fully specified) [Compound 10-3]", 248],
  ["CACattrcrcttrgrctCTG (antisense CACATTCCTTGCTCTG; LNA gapmer, stereodefined phosphorothioates, chemistry not fully specified) [Compound 10-5]", 369]
]}

====

Overview of recorded EGF for various substances
Tested on: Primary human hepatocytes
Assay: EGF assay, culture media of primary human hepatocytes;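 also: values as percent of saline vehicle control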
Type: cell-based
Settings: day 3, 100 μM, 10 ng/ml EGF in medium
l = locked nucleic acid (LNA); d = 2'-deoxy (DNA)

{"columns": ["Substance", "EGF"],
 "data": [
  ["TGCtcaacatcAAG (TGCTCAACATCAAG; chemistry not given here) [Compound 11-1]", "458 % saline"],
  ["CACattccttgctCTG (CACATTCCTTGCTCTG; chemistry not given here) [Compound 10-1]", "574 % saline"],
  ["TGCtacaaaacCCA (antisense TGCTACAAAACCCA; sugars from the 5' end l3 d8 l3, backbone and methylation of C not given here) [Compound 3-1]", "411 % saline"],
  ["GCtgtgtgagcttGG (antisense GCTGTGTGAGCTTGG; sugars from the 5' end l2 d11 l2, backbone and methylation of C not given here) [Compound 4-1]", "985 % saline"],
  ["GTCagaaacaaccACC (GTCAGAAACAACCACC; chemistry not given here) [Compound 14-1]", "220 % saline"],
  ["CGTcagtatgcgAATc (CGTCAGTATGCGAATC; chemistry not given here) [Compound 1-1]", "159 % saline"],
  ["AATgctacaaaaCCCA (antisense AATGCTACAAAACCCA; sugars from the 5' end l3 d9 l4, backbone and methylation of C not given here) [Compound 2-1]", "211 % saline"]
]}

====

System: PTEC-TERT1 cells
Test: EGF assay, supernatant of PTEC-TERT1 cells
Settings: PTEC-TERT1, Day 6, 10 μM (Table 4)

{"columns": ["Substance", "Unit info", "EGF"],
 "data": [
  ["TGCtcaacatcAAG (TGCTCAACATCAAG; chemistry not given here) [Compound 11-1]", "% saline", 38],
  ["CTAtgtgttccTGT (CTATGTGTTCCTGT; chemistry not given here) [Compound 15-1]", "% saline", 38],
  ["CATtgcattgttTCCG (CATTGCATTGTTTCCG; chemistry not given here) [Compound 19-2]", "% saline", 370],
  ["ATTgcattgtttcCGT (ATTGCATTGTTTCCGT; chemistry not given here) [Compound 18-1]", "% saline", 223]
]}

====

Tested on: PTEC-TERT1 cells
Assay: EGF assay, supernatant of PTEC-TERT1 cells
Conditions: PTEC-TERT1, Day 6, 30 μM (Table 4)
Observation type: EGF (% saline)

{"columns": ["Substance", "Recorded number"],
 "data": [
  ["CGTttgtgctcgATA (CGTTTGTGCTCGATA; chemistry not given here) [Compound 17-1]", 550],
  ["CATtgcattgttTCCG (CATTGCATTGTTTCCG; chemistry not given here) [Compound 19-2]", 606],
  ["CATtgcattgtttCCG (CATTGCATTGTTTCCG; chemistry not given here) [Compound 19-1]", 310],
  ["CACattccttgctCTG (CACATTCCTTGCTCTG; chemistry not given here) [Compound 10-1]", 330],
  ["TGCtcaacatcAAG (TGCTCAACATCAAG; chemistry not given here) [Compound 11-1]", 127],
  ["CGTttgtgctcgaTAA (CGTTTGTGCTCGATAA; chemistry not given here) [Compound 16-1]", 509]
]}

====

Tested on: PTEC-TERT1 cells
Test: EGF assay, supernatant of PTEC-TERT1 cells
Conditions: PTEC-TERT1, Day 6, 30 μM (Table 4)
Overview of recorded EGF for various substances

{"columns": ["Substance", "EGF / % saline"],
 "data": [
  ["TTAcacttgacCCA (TTACACTTGACCCA; chemistry not given here) [Compound 12-1]", 27],
  ["ACTgctttccactCTG (ACTGCTTTCCACTCTG; chemistry not given here) [Compound 8-1]", 1359],
  ["TTTacacttgaCCC (TTTACACTTGACCC; chemistry not given here) [Compound 13-1]", 29],
  ["GCCtcccagttccTTT (GCCTCCCAGTTCCTTT; chemistry not given here) [Compound 9-1]", 284],
  ["CAAatgctgaaacTAT (CAAATGCTGAAACTAT; chemistry not given here) [Compound 7-1]", 40],
  ["CAAaggaaacacaCAT (CAAAGGAAACACACAT; chemistry not given here) [Compound 6-1]", 90],
  ["CTAtgtgttccTGT (CTATGTGTTCCTGT; chemistry not given here) [Compound 15-1]", 76],
  ["ATTgcattgtttcCGT (ATTGCATTGTTTCCGT; chemistry not given here) [Compound 18-1]", 203]
]}
